Test: Half life of the drug was determined in the presence of 2-mercaptoethanol
Assay type: ADME
Conditions: solution containing 2-mercaptoethanol
# half-life per record follows
ENDPOINT: half-life (min)

1. CS(=O)(=O)Nc1ccc(Nc2c3ccccc3nc3ccccc23)cc1    0.92
2. COc1cc(NS(C)(=O)=O)ccc1Nc1c2ccccc2nc2ccccc12    1.8
3. Cc1cc(NS(C)(=O)=O)ccc1Nc1c2ccccc2nc2ccccc12    54

---

Assay: Chromatographic measure of drug lipophilicity
Assay type: physicochemical
Rm values for the compounds below.
ENDPOINT: Rm

1. COc1cc(NS(C)(=O)=O)ccc1Nc1c2ccccc2nc2ccccc12 [AMSACRINE]    0.18
2. CS(=O)(=O)Nc1ccc(Nc2c3ccccc3nc3ccccc23)cc1    0
3. COc1cc(NS(C)(=O)=O)cc(OC)c1Nc1c2ccccc2nc2ccccc12    0.36
4. Cc1cc(NS(C)(=O)=O)cc(C)c1Nc1c2ccccc2nc2ccccc12    0.41
5. Cc1cc(NS(C)(=O)=O)ccc1Nc1c2ccccc2nc2ccccc12    0.15
